The values you see were collected from patent US10428140B2.

Assignment: determine reported hEphB4-SEAP-: absorbance at 450 nm, percentage with respect to hEphA4-SEAP-His as 100% for the given molecules.
Biological target: T1, human EphB4 (Homo sapiens, UniProt P54760)
T1 construct: a protein of the extracellular region of each human Eph receptor fused with the SEAP protein and the His tag; made in house; host or cells: Expi293F cells
T1 sequence (P54760 16-539 limits assumed): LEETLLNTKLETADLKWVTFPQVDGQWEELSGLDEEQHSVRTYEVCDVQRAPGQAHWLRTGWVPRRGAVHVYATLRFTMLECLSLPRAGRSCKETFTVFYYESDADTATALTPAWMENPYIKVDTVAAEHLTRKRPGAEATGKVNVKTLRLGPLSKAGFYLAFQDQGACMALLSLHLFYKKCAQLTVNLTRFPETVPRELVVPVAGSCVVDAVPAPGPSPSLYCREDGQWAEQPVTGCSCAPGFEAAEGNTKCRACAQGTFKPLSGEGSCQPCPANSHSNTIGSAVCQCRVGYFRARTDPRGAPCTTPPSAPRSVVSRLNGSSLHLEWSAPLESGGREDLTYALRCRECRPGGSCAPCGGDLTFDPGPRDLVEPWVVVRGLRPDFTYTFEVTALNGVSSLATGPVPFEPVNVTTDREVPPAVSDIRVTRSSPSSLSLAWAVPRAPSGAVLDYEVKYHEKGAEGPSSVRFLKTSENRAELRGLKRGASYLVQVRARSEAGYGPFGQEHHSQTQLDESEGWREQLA
Experiment: Selectivity ELISA of humanized antibodies for human Eph receptor
Type: binding
Conditions: coated protein 1 nM
Numbers only, in %.

molecule	endpoint_unit	numeric_value
87 (antibody, V domains shown, constant regions without entry; synthetic humanized antibody light chain variable region sequence; synthetic humanized antibody heavy chain variable region sequence) VL: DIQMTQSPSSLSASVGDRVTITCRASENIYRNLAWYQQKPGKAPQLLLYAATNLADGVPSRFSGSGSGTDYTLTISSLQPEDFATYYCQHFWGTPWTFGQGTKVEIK VH: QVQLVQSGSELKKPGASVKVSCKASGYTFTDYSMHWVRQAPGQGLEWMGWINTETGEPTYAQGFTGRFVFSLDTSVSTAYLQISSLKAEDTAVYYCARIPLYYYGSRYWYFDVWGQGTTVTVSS	%	5.5

Let us move to another entry and its hEphB4-SEAP-: absorbance at 450 nm, percentage with respect to hEphA4-SEAP-His as 100%.
Documented hEphB4-SEAP-: absorbance at 450 nm, percentage with respect to hEphA4-SEAP-His as 100% of 140 (antibody, V domains shown, synthetic humanized antibody heavy chain variable region sequence; synthetic humanized antibody light chain variable region sequence) VH: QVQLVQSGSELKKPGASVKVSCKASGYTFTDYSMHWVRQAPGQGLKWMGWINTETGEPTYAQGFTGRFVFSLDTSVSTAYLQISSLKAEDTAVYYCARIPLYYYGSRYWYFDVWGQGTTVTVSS VL: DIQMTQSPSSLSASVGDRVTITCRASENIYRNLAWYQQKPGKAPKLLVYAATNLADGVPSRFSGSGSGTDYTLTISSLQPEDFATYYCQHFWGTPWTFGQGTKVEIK : 5.4
